# System: MGC 803 (human gastric cancer cell)
# assayComment: MTT solid tumor cell growth inhibition, 72 h
# Type: cell-based
# cond: Homo sapiens; MGC 803, 72 h; read-out: IC90
Kindly state IC90 for each of the entries shown.
One number for each entry, in µg/mL.

Record excerpt, results attached:
1. COC1=C[C@]23CCCN2CCc2cc4c(cc2[C@@H]3[C@@H]1OC(=O)[C@@](O)(CCCC(C)(C)O)CC(=O)N1CCSCC1)OCO4 ... 15.5
2. COC1=C[C@]23CCCN2CCc2cc4c(cc2[C@@H]3[C@@H]1OC(=O)[C@@](O)(CCCC(C)(C)O)CC(=O)N1CCC(C#N)CC1)OCO4 ... 9.2
3. COC1=C[C@]23CCCN2CCc2cc4c(cc2[C@@H]3[C@@H]1OC(=O)[C@@](O)(CCCC(C)(C)O)CC(=O)N1CCC(N(C)C)CC1)OCO4 ... 0.48
4. COC1=C[C@]23CCCN2CCc2cc4c(cc2[C@@H]3[C@@H]1OC(=O)[C@@](O)(CCCC(C)(C)O)CC(=O)NCc1cccs1)OCO4 ... 19

Endpoint output: IC90 of COC(=O)C[C@](O)(CCCC(C)(C)O)C(=O)O[C@@H]1C(OC)=C[C@]23CCCN2CCc2cc4c(cc2[C@H]13)OCO4 [HHT, reference compound] . Value?
0.2
